assay: Lipophilicity, log D of the compound at pH 7.4; assay type: physicochemical; details: buffer
// assign y if logD falls strictly below 4, else n (ties count as n)

INSERT INTO measurements (molecule, assigned_class) VALUES
  ('CCOc1nc(NC(=O)C(C)(C)NC(=O)c2ccc3c(C4CCCC4)c(-c4ccc(Cl)cn4)n(C)c3c2)ccc1/C=C/C(=O)O', 'n'),
  ('CCOc1nc(NC(=O)C(C)(C)NC(=O)c2ccc3c(C4CCCC4)c(-c4ccccn4)n(C)c3c2)cnc1/C=C/C(=O)O', 'y'),
  ('CCOc1nc(NC(=O)C2(NC(=O)c3ccc4c(C5CCCC5)c(-c5ccccn5)n(C)c4c3)CCCC2)cnc1/C=C/C(=O)O', 'y'),
  ('CCOc1nc(NC(=O)C2(NC(=O)c3ccc4c(C5CCCC5)c(-c5ccc(F)cn5)n(C)c4c3)CCCC2)ccc1/C=C/C(=O)O', 'n'),
  ('CCOc1nc(NC(=O)C2(NC(=O)c3ccc4c(C5CCCC5)c(-c5ccc(F)cn5)n(C)c4c3)CCC2)ccc1/C=C/C(=O)O', 'n');

Every entry's value here was drawn from ChEMBL document CHEMBL3407472.
